Test system: Abp1 PPIs
Assay: DHFR-PCA of Abp1 SH3-swapped baits (Fig. 2B-D, S2C, S2F);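 further: Euclidean distance between DHFR-PCA score profiles of the baits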
Assay type: cell-based, Saccharomyces cerevisiae
Settings: Abp1 bait with swapped SH3, distance to bait with ABP1 SH3; sheet Fig2C
Give measured Protein-protein interaction distance between Abp1 SH3-swapped baits, to ABP1 for each item. Keep answers brief.

Form field: reported Protein-protein interaction distance between Abp1 SH3-swapped baits, to ABP1 of LSB1 (protein, UniProt P53281 2-241, looked up) LAS seventeen-binding protein …: SASLVNRSLKNIRNELEFLKESNVISGDIFELINSKLPEKWDGNQRSPQNADTEEYVEALYDFEAQQDGDLSLKTGDKIQVLEKISPDWYRGKSNNKIGIFPANYVKPAFTRSASPKSAEAASSSTVSRPSVPPPSYEPAASQYPSQQVSAPYAPPAGYMQAPPPQQQQAPLPYPPPFTNYYQQPQQQYAPPSQQAPVEAQPQQSSGASSAFKSFGSKLGNAAIFGAGSAIGSDIVNSIF 13.24

# repeat for PIN3 (protein, UniProt Q06449 2-215, looked up) [PSI+] inducibility protein 3: SASLINRSLTNIRTELDFLKGSNVISNDVYDQINKSLPAKWDPANAPRNASPASLEYVEALYQFDPQQDGDLGLKPGDKVQLLEKLSPEWYKGSCNGRTGIFPANYVKPAFSGSNGPSNLPPPPQYKAQELQQIPTQNSAASSYQQQPFPPPSTNYYQQPQQQPQQAPPPQQQQQQQQHQSSHSHLKSFGSKLGNAAIFGAGASIGSDIVNNIF 11.43

For PEX13 (protein, UniProt P80667 1-386, looked up) Peroxisomal membrane protein …: MSSTAVPRPKPWETSASLEEPQRNAQSLSAMMTSNQQDSRPTEESNNSNSASESAPEVLPRPAALNSSGTYGESNTIPGIYGNSNYGIPYDNNPYSMNSIYGNSIGRYGYGGSYYGNNYGSFYGGGYGAGAGYGMNNGSGLGESTKATFQLIESLIGAVTGFAQMLESTYMATHNSFFTMISVAEQFGNLKEMLGSFFGIFAIMKFLKKILYRATKGRLGIPPKNFAESEGSKNKLIEDFQKFNDSGTINSNEKATRRKISWKPLLFFLMAVFGFPYLLNKFITKLQTSGTIRASQGNGSEPIDPSKLEFARALYDFVPENPEMEVALKKGDLMAILSKKDPLGRDSDWWKVRTKNGNIGYIPYNYIEIIKRRKKIEHVDDETRTH then? 10.96

// repeat for SHO1 (protein, UniProt P40073 1-367, looked up) High osmolarity signaling …: MSISSKIRPTPRKPSRMATDHSFKMKKFYADPFAISSISLAIVSWVIAIGGSISSASTNESFPRFTWWGIVYQFLIICSLMLFYCFDLVDHYRIFITTSIAVAFVYNTNSATNLVYADGPKKAAASAGVILLSIINLIWILYYGGDNASPTNRWIDSFSIKGIRPSPLENSLHRARRRGNRNTTPYQNNVYNDAIRDSGYATQFDGYPQQQPSHTNYVSSTALAGFENTQPNTSEAVNLHLNTLQQRINSASNAKETNDNSNNQTNTNIGNTFDTDFSNGNTETTMGDTLGLYSDIGDDNFIYKAKALYPYDADDDDAYEISFEQNEILQVSDIEGRWWKARRANGETGIIPSNYVQLIDGPEEMHR and report 8.989

Values compiled from paper PMC7954794.
